Tested on: IGROV-1
Assay: NCI tumour cell line growth inhibition, 48 h
Activity calls are given as the source filed them. Cut-off read from the data, not from the text of the source: active = GI50 up to about 1.1 µM and inactive = higher.
Pick one: 1 = active, -1 = inactive

Examples from the recorded data:
> print(dat)
                                   compound  class.assignment
1  C1CC[N+]23CCCC[N+]2(C1)CCCC3 (stereo not drawn)                -1
2  C[C@@H](NC1CCCC[C@H]1O)c1ccccc1 (stereo partly drawn)                -1
3  Cc1cc(N(CCC#N)CCC#N)ccc1/C=C(\NC(=O)/C=C/c1ccccc1)C(=O)N=[N+]=[N-]                -1
4          O=C(COC(=O)c1ccccc1)c1ccc(Br)cc1                 1
5  O=C(CCc1cc(-c2ccccc2)[nH]c(=S)n1)Nc1ccccc1[N+](=O)[O-]                -1

Prompt: For this compound, state the assay outcome: C[C@]12CC[C@@H]3c4ccc(O)cc4CC[C@H]3[C@@H]1CC[C@@H]2OC(=O)CCc1ccccc1
Response: -1

Prompt: For this compound, state the assay outcome: CCOc1ccc(NC(=O)CC2SC(Nc3ccc(C)cc3)=NC2=O)cc1 (stereo not drawn)
Response: -1

Prompt: For this compound, state the assay outcome: COc1ccc(/C=N/NS(=O)(=O)c2ccc(/C=C3\NC(=O)N(C)C3=O)cc2)cc1
Response: -1

###

Tested on: SK-MEL-28
Assay: NCI tumour cell line growth inhibition, 48 h
The source made the active and inactive calls. Rule as the data show it: active = GI50 up to about 1.1 µM and inactive = higher.
quantity_kind: GI50

> print(dat)
                                   molecule  quantity.kind             measured
1           CCc1n[nH]c(=O)n1/N=C/c1ccccc1Cl           GI50  > 100 µM (inactive)
2  COc1cc([N+](=O)[O-])cc2c1NC(=O)C2(C)SC (centres undefined)           GI50  > 100 µM (inactive)
3  CC[C@@]1(C)CCC2c3ccc(O)cc3CC[C@H]2C1C (some centres undefined)           GI50   17.8 µM (inactive)

Prompt: Look up GI50: CSCCC(NCc1c(O)ccc2ccc(=O)oc12)C(=O)O (centres undefined)
Response: > 100 µM (inactive)

###

This listing pairs compounds with measured GI50.
Test system: SW-620
Assay: NCI tumour cell line growth inhibition, 48 h
The source made the active and inactive calls. Cut-off read from the data, not from the text of the source: active = GI50 up to about 1.1 µM and inactive = higher.

See these solved cases before continuing.
> print(dat)
                                   compound  target.or.test.system             measured
1  COC1OC(COC(C)=O)C(OC(C)=O)C(OC(C)=O)C1NC(=O)N(CCCl)N=O (stereo not given)                 SW-620  > 100 µM (inactive)
2  O=C(CC(=O)C1CCOC1=O)C(=O)Nc1ccc(Cl)cc1 (stereo not given)                 SW-620  > 100 µM (inactive)
3    CC(=O)c1ccccc1NP(=O)(c1ccccc1)c1ccccc1                 SW-620   97.7 µM (inactive)
4  COC(=O)N/N=C(\C)C(CN1CCOCC1)C(c1ccccc1)c1cc2ccccc2oc1=O (stereo not given)                 SW-620  > 100 µM (inactive)

Now turn to the next compound.
Prompt: Look up GI50: Cc1nc2ccc(F)cc2c(Cl)c1CCCl
Response: 39.5 µM (inactive)
